The binders listed here are annotated with their binding signal.
target.or.system: streptavidin (UniProt P22629 25-183)
Sequence (P22629 25-183): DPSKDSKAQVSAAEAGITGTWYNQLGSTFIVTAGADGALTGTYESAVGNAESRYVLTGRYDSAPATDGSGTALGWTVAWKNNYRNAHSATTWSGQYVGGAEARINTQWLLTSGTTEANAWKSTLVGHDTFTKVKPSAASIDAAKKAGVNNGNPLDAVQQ
experiment.summary: capillary electrophoresis
assay.endpoint: binding signal

binder	meas.value
TAGGACAAACGCACACGGCGCAGTGTTTTGACCTA (structured_DNA) [S10-103 minimal]	48 % bound
CACGTAACGCATACGCCGCAGTATTTATGTG (structured_DNA) [S10-101 minimal]	> 70 % bound
CTGTGAGACGACGCACCGGTCGCAGGTTTTGTCTCACAG (structured_DNA) [NRR]	33 % bound
CAAACCTCGCGCCGATTGCAGGCAGGTTTG (structured_DNA) [S10-113 minimal]	50 % bound
CTTGTGTTTGCTCCCCGACGCAGGGGACACAAG (structured_DNA) [S10-115 minimal]	60 % bound
CATATTTAGCGCGTGTGTCGCAACACCTATATATG (structured_DNA) [S10-104 minimal]	53 % bound
